Target: T1, human GFRAL (analyte in Biacore assays) (human, UniProt Q6UXV0 19-351, limits assumed)
T1 construct: injected in solution over captured antibody; also called hGFRAL
T1 sequence: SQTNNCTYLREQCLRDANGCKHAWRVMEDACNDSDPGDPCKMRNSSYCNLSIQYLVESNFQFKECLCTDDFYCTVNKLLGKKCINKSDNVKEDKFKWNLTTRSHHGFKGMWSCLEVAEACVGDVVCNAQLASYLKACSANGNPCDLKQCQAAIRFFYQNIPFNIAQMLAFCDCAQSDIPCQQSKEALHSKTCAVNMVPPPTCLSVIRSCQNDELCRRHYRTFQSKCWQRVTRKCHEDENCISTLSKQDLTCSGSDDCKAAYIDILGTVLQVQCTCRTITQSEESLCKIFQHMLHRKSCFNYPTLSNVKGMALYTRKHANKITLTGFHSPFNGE
Test: Biacore SPR, antibody captured, human GFRAL injected
METRIC NAME: pKd
Interpret pKd as the negative base-10 log of the concentration measured in mol/L.

Query: Data request, read-out pKd, for humanized anti-GFRAL antibody HC-375g/LC-375j (antibody, IgG1, V domains shown, humanized 5F12) VH: QVQLVQSGAEVKKPGSSVKVSCKASGYTFTDYYINWVRQAPGQGLEWIARIYPGNGNTYHNEKFKGRATLTADKSTSTAYMELSSLRSEDTAVYYCAREGLYYDYDRYFDYWGQGTLVTVSS VL: DIVLTQSPLSLPVTLGQPASISCRASESVDTYGNSFMHWYQQRPGQSPRLLIYLASNLESGVPDRFSGSGSRTDFTLKISRVEAEDVGVYYCHQNNEDPPAFGGGTKVEIK
Reply: 10.24
